Cited source for all entries: PubChem BioAssay (NCI)

- Test system: A549 NSCLC
- test.protocol: NCI tumour cell line growth inhibition, 48 h
# TGI per entry

# example entries with known answers
molecule	system.name	TGI
CC(O)c1nc(C#N)c(N)o1 (stereo unspecified)	A549 NSCLC	> 100 µM
Cc1nnc2n1N=C(c1ccccc1)C(c1ccccc1)S2 (stereo unspecified)	A549 NSCLC	> 100 µM
N#C/C(=C\c1ccc2[nH]ccc2c1)C(=O)NCCCCNC(=O)/C(C#N)=C/c1ccc2[nH]ccc2c1	A549 NSCLC	> 100 µM

Exercise: Find the measured TGI: item CC(=O)NC1C(OCc2ccccc2)OC(CO)C(O)C1OC(C)C(=O)N[C@@H](C)C(=O)N[C@H](CCC(=O)NCCNCCNc1c2ccccc2nc2cccc([N+](=O)[O-])c12)C(N)=O (stereo partly specified) , target or system A549 NSCLC.
Solution: 1.71 µM

Exercise: Follow-up item: COc1cccc2c1C(=O)c1c(O)c3c(c(O)c1C2=O)C[C@@](O)(C(C)=O)CC3OC1CC(OC2CC(N)C(O)C(C)O2)C(O)C(C)O1 (stereo partly specified)
Solution: > 100 µM

Exercise: Follow-up item: O=C1/C(=C/c2ccccc2)Oc2cc(O)ccc21
Solution: > 100 µM
